- Test system: SK-MEL-5 melanoma
- Assay Overview: NCI tumour cell line growth inhibition, 48 h
Property: TGI; scope: individual compounds
Reported Metric: TGI (µM)

* O=C(NNC(=S)Nc1ccccc1)c1ccccc1Nc1ccccc1C(=O)NNC(=S)Nc1ccccc1 | 58.2
* CCCc1cc(=O)oc2c3c(c4c(c12)OC(C)(C)C=C4)O[C@@H](C)[C@H](C)C3=O | 32.3
* CCC(C)n1cc(C)c2c(C(=O)NCc3c(C)cc(C)[nH]c3=O)cc(Br)cc21 (stereo unspecified) | 29.1
* OCCCN=NNc1ccc(-c2nc3ccccc3[nH]2)cc1 | 88.6
* COc1ccc(C(=O)c2ccc(OC)c(OC)c2OC)cc1 | 37.2
* ClC1=C(Cl)C(Cl)=C(Cl)C1=C/C=C/c1ccccc1 | 0.563
* CC(OC(=O)NCn1cc(-c2ccccc2)nn1)c1ccccc1 (stereo unspecified) | 32.4
* CCC[CH2][Sn]([CH2]CCC)([O]C(=O)c1cc(F)cc(F)c1)[O]C(=O)c1cc(F)cc(F)c1 | 2.61
* O=[N+]([O-])c1ccc(-c2nc(-c3ccccc3)c(-c3ccccc3)n2-c2ccccc2)cc1 | 3.81
* N#Cc1c(-c2ccco2)cc(-c2ccc(NCc3nc4ccccc4[nH]3)cc2)nc1N | 29.9
* Cc1cccc(Oc2nccc(-c3c(-c4ccc(F)cc4)ncn3C3CCNCC3)n2)c1C | 6.92
* CCn1c2c(n(CC)c1=S)-c1c(n(CC)c(=S)n1CC)SSSS2 | 43.1
* COC(=O)C1=C(C(=O)OC)C2(OC(C)=O)c3ccccc3-c3ccccc3C12 (stereo unspecified) | 27.3
* CCCC/C=C/C1Cc2ccccc2CN1S(=O)(=O)c1ccc(C)cc1 (stereo unspecified) | 14.9
* CN(C)c1ccc(C(=C2C=CC(=[N+](C)C)C=C2)c2ccc(N(C)C)cc2)cc1 (tested in a mixture with another compound) | 0.289
* C[C@H](Nc1c(O)c2c(c(O)c1Cl)C(=O)C=CC2=O)C(=O)Nc1ccc([N+](=O)[O-])cc1 | 3.14
* COC(=O)C1(Cc2ccc3c(c2)CCC3)Cc2ccc3c(c2C1O)CCC3 (stereo unspecified) | 22.1
* C=C(C)[C@@H]1CC[C@]2(C)[C@H](C(=O)C=C3[C@@H]4C[C@](C)(C(=O)N5CCN(C)CC5)CC[C@]4(C)CC[C@]32C)[C@@]1(C)CCC#N | 13.9
* NC(=NCCCOc1ccc(Cl)cc1)Nc1ccc(Cl)cc1 | 3.16
* Cc1cc2cc3cc(C)c(N(C)C)cc3nc2cc1N(C)C | 4.71

----------
Listing of recorded TGI by entry.
- Test system: NCI-H522 lung
- Assay Overview: NCI tumour cell line growth inhibition, 48 h
Reported Metric: TGI

- CCOc1ccc([C@@H]2[C@@H](Oc3ccccc3)C(=O)N2c2cc(OC)c(OC)c(OC)c2)cc1: 0.371 µM
- O=C1NC(Cc2c[nH]c3ccccc23)C(=O)N2C(C3CCCCC3)c3[nH]c4ccccc4c3C[C@@H]12 (some centres undefined): 28.6 µM
- COCC1CCCN1c1ccc(/C=C(/C#N)C(N)=S)cc1 (centres undefined): 61.4 µM
- O=C(CC(=O)N1N=C(N2CCCCC2)CC1c1ccccc1)Nc1ccc(Cl)cc1 (centres undefined): > 100 µM
- C[C@]12CCC[C@H](Cl)C1(O)C[C@H](C(=O)O)CC2 (some centres undefined): > 100 µM
- CCCCC(=O)Nc1ccc2cc(C(=O)OC)c(ON3C(=O)c4ccccc4C3=O)nc2n1: 58.5 µM
- CN(C)c1ccc(N=Cc2c([O-])ccc3ccccc23)cc1.[C-]#[O+].[C-]#[O+].[Ir]: 18.6 µM
- CC(C)(C)[Si](C)(C)OCC1OC(n2cnc3c(NC(=O)c4ccccc4)ncnc32)CC1O (centres undefined): 37.7 µM
- CCCCn1c(C)c(C(=O)OCC)s/c1=N/Nc1nc2ccccc2nc1-c1ccccc1: > 100 µM
